protocol.details: Caco-2 membrane permeability, improved method as used in the following Examples (96-well, 20 to 24 h preincubation)
Assay type: in vitro ADME
test.settings: human, Caco-2, Caco-2
Starred links: 1 amine or outer side, 2 acyl side, 3 side chain; linkers in the order of their positions; H or OH if unused. Positions of bridges follow the written chain, without caps; N, C: chain ends. Non-standard residues stand in square brackets, D forms with d. Residues, ends and D or L forms follow the SMILES beside them. *: point of attachment. X13 = O=C([C@@H]1C[C@H](N2CCC(F)(F)CC2)CN1[*:1])[*:2]; X4 = O=C([C@@H]1C[C@@H](N2CCC(F)(F)CC2)CN1[*:1])[*:2]; NMePhe(3-Cl) = CN[C@@H](Cc1cccc(Cl)c1)C(=O)O; Gly(NCH2CH2Ph) = O=C(O)CNCCc1ccccc1; NMeF = CN[C@@H](Cc1ccccc1)C(=O)O; NMeGABA = CN(CCCC(=O)[*:2])[*:1]; hPhe = N[C@@H](CCc1ccccc1)C(=O)O; NMeL = CN[C@@H](CC(C)C)C(=O)O; NMeV = CN[C@H](C(=O)O)C(C)C; NMeAbu = CC[C@H](NC)C(=O)O; NMeA = CN[C@@H](C)C(=O)O; Piperidide = C1CCN(*)CC1; dAbu = CC[C@@H](N)C(=O)O; Abu = CC[C@H](N)C(=O)O; Sar = CNCC(=O)O; tBu = CC(C)(C)*
Documented Papp A→B at 180 min across a set of molecules
All answers are understood in ×10⁻⁶ cm/s, so give the number only.

- molecule: "CC[C@H]1NC(=O)C[C@@H](C(=O)N2CCCCC2)NC(=O)[C@H](CC(C)C)N(C)C(=O)[C@H](Cc2ccccc2)NC(=O)[C@@H]2C[C@@H](N3CCC(F)(F)CC3)CN2C(=O)[C@H]([C@@H](C)O)NC(=O)[C@H](CC(C)C)N(C)C(=O)[C@H](CC(C)C)NC(=O)[C@H](CC(C)C)N(C)C(=O)[C@H](COC(C)(C)C)NC(=O)[C@H](CC(C)C)N(C)C1=O [pd459] ([dAbu][NMeL]S(tBu)[NMeL]L[NMeL]T[X4]F[NMeL]D-Piperidide; lactam N-11)"
  Papp A→B at 180 min (×10⁻⁶ cm/s): 1.6
- molecule: "CC(C)C[C@H]1C(=O)N[C@@H](COC(C)(C)C)C(=O)N(C)[C@@H](Cc2ccccc2)C(=O)N(C)[C@@H](CC(C)C)C(=O)N[C@H](C(=O)N2CCCCC2)CC(=O)N2C[C@@H](N3CCC(F)(F)CC3)C[C@H]2C(=O)N(C)[C@@H](Cc2cccc(Cl)c2)C(=O)N[C@@H](C(C)C)C(=O)N(C)[C@@H](C(C)C)C(=O)N[C@@H]([C@@H](C)O)C(=O)N(C)CC(=O)N1C [pd461] ([X13][NMePhe(3-Cl)]V[NMeV]T[Sar][NMeL]S(tBu)[NMeF][NMeL]D-Piperidide; lactam N-11)"
  Papp A→B at 180 min (×10⁻⁶ cm/s): 1.4
- molecule: "CC[C@H](C)[C@@H]1NC(=O)[C@H](CC(C)C)N(C)C(=O)CCCN(C)C(=O)C[C@@H](C(=O)N2CCCCC2)NC(=O)[C@H](CC(C)C)N(C)C(=O)[C@H](C)N(C)C(=O)[C@H]([C@@H](C)O)NC(=O)[C@H](CC(C)C)N(C)C(=O)[C@H](CCc2ccccc2)NC(=O)[C@H](CC(C)C)N(C)C(=O)[C@H](Cc2ccccc2)N(C)C1=O [pd316] ([NMeGABA][NMeL]I[NMeF][NMeL][hPhe][NMeL]T[NMeA][NMeL]D-Piperidide; lactam N-11)"
  Papp A→B at 180 min (×10⁻⁶ cm/s): 1.4
- molecule: "CC[C@@H]1NC(=O)[C@H](Cc2ccccc2)N(C)C(=O)[C@H](CC(C)C)N(C)C(=O)[C@H](CC(C)C)NC(=O)[C@H](CC)N(C)C(=O)C[C@@H](C(=O)N2CCCCC2)NC(=O)[C@H](CC(C)C)N(C)C(=O)CN(C)C(=O)[C@H]([C@@H](C)O)NC(=O)CN(CCc2ccccc2)C(=O)[C@H](CC(C)C)N(C)C1=O [pd415] ([NMeAbu]L[NMeL][NMeF][Abu][NMeL][Gly(NCH2CH2Ph)]T[Sar][NMeL]D-Piperidide; lactam N-11)"
  Papp A→B at 180 min (×10⁻⁶ cm/s): 3.3

-- ask Query (molecule): CC(C)C[C@H]1C(=O)N[C@@H](COC(C)(C)C)C(=O)N(C)[C@@H](C)C(=O)N(C)[C@@H](CC(C)C)C(=O)N[C@H](C(=O)N2CCCCC2)CC(=O)N[C@H](C)C(=O)N(C)[C@@H](Cc2ccccc2)C(=O)N[C@@H](COc2ccccc2Cl)C(=O)N(C)[C@@H](CC(C)C)C(=O)N[C@@H]([C@@H](C)O)C(=O)N(C)CC(=O)N1C [pd340] ; field requested: Papp A→B at 180 min
-- reply 1.2
